The reported numbers originate from patent US20140087995A1.

Parameter hCTR funct. EC50 (pM): see the listing below.
Target: T1, human calcitonin receptor (human, UniProt P30988 25-474)
T1 sequence (looked up): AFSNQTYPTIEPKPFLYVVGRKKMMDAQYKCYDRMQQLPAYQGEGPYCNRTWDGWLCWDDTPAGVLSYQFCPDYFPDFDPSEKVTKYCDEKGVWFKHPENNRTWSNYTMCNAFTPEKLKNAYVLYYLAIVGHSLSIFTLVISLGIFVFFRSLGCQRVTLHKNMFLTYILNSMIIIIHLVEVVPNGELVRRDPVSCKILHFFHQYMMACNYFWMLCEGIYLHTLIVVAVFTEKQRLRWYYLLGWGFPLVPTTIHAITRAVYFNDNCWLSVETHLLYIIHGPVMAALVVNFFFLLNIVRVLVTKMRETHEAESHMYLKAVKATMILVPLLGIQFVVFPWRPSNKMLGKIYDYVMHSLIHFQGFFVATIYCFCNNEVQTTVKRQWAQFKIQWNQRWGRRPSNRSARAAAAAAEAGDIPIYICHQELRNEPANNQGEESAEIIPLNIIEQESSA
Assay: cell-based or functional assay
Numbered stars: 1 amine (or outer) side, 2 acyl side, 3 side chain; on linkers, the order of the positions; unused ones are H or OH. Bridge positions count the residues as written; N and C are the ends. Square brackets hold non-standard residues; d marks the D form. Side chains are listed from the residue outwards. Ends that are not written are not given here. * marks the point of attachment. C20 diacid = O=C(O)CCCCCCCCCCCCCCCCCCC(=O)*; C16 diacid = O=C(O)CCCCCCCCCCCCCCC(=O)*; γGlu = O=C(O)[C@H](CCC(=O)[*:2])N[*:1]
Record the value in pM, omitting the unit from your answer.

// worked examples, hCTR funct. EC50 (pM) included
[
  {
    "binder": "K([γGlu-γGlu-C20 diacid])CNTATCATQRLAEFLRHSSPNFGAIPSSTNVGPNTF-NH2 (disulfide 2-7 (inferred), Synthetic)",
    "quantity_unit": "pM",
    "hCTR funct. EC50 (pM)": 2140
  },
  {
    "binder": "K([γGlu-C16 diacid])CNTATCATQRLANFLRHSSPNFGAIPSSTNVGHNTY-NH2 (disulfide 2-7 (inferred), Synthetic) [N^ε1-[(4S)-4-carboxy-4-(15-carboxypentadecanoylamino)butanoyl]-[Arg17,Pro21,Pro27,His34]-h-amylin]",
    "quantity_unit": "pM",
    "hCTR funct. EC50 (pM)": 2210
  },
  {
    "binder": "K([γGlu-γGlu-C20 diacid])CNTATCATQRLANFLRHSSPNFGAIPSSTPVGPRTY-NH2 (disulfide 2-7 (inferred), Synthetic)",
    "quantity_unit": "pM",
    "hCTR funct. EC50 (pM)": 8660
  },
  {
    "binder": "K([γGlu-γGlu-C20 diacid])CNTATCATQRLAEFLRHSSPNFGAIPSSTNVGRETY-NH2 (disulfide 2-7 (inferred), Synthetic)",
    "quantity_unit": "pM",
    "hCTR funct. EC50 (pM)": 7430
  },
  {
    "binder": "K([γGlu-C20 diacid])CNTATCATQRLAEFLRHSSPNFGAIPSSTNVGPRTY-NH2 (disulfide 2-7 (inferred), Synthetic)",
    "quantity_unit": "pM",
    "hCTR funct. EC50 (pM)": 6380
  },
  {
    "binder": "K([γGlu-C20 diacid])CNTATCATQRLADFLRHSSPNFGAIPSSTNVGPRTY-NH2 (disulfide 2-7 (inferred), Synthetic)",
    "quantity_unit": "pM",
    "hCTR funct. EC50 (pM)": 3640
  },
  {
    "binder": "K([γGlu-γGlu-C20 diacid])CNTATCATQRLADFLRHSSPNFGAIPSSTNVGPETY-NH2 (disulfide 2-7 (inferred), Synthetic)",
    "quantity_unit": "pM",
    "hCTR funct. EC50 (pM)": 843
  },
  {
    "binder": "K([γGlu-γGlu-C20 diacid])CNTATCATQRLA[dD]FLRHSSPNFGAIPSSTNVGSRTY-NH2 (disulfide 2-7 (inferred), Synthetic)",
    "quantity_unit": "pM",
    "hCTR funct. EC50 (pM)": 100000
  },
  {
    "binder": "K([γGlu-γGlu-C20 diacid])CNTATCATQRLAEFLRHSSPNFGAIPSSTNVGHETY-NH2 (disulfide 2-7 (inferred), Synthetic)",
    "quantity_unit": "pM",
    "hCTR funct. EC50 (pM)": 7050
  },
  {
    "binder": "K([γGlu-γGlu-C20 diacid])CNTATCATQRLAEFLRHSSPNFGAIPSSTNVGPETY-NH2 (disulfide 2-7 (inferred), Synthetic)",
    "quantity_unit": "pM",
    "hCTR funct. EC50 (pM)": 2360
  }
]

With those in mind, consider the next binder.
IN: # lookup: hCTR funct. EC50 (pM) of K([γGlu-C20 diacid])CNTATCATQRLAEFLRHSSPNFGAIPSSTNVGHETY-NH2 (disulfide 2-7 (inferred), Synthetic; also called compound 107)
OUT: 2540
